molecular target: Rhodopirellula baltica RbMPO variant Q199A (of SEQ ID NO: 1); conditions: read-out: Ki H2O2; Q199A 1 μM; H2O2 range, 500 mM NaCl, 10 μM APF, 37° C., pH7.5
METRIC: pKi
Notebook: values listed as pKi are -log10 of the concentration (mol/L).

In: Quick check: pKi on Rhodopirellula baltica RbMPO variant Q199A (of SEQ ID NO: 1), item OO [H2O2, hydrogen peroxide] ?
Out: 1.74

###

target: Rhodopirellula baltica RbMPO, wild type, SEQ ID NO: 1; test: Pre-steady-state kinetics: compound I formation and return to native state (stopped-flow, 412 nm); conditions: H2O2; wt RbMPO 1.78 μM, 37° C., pH7.5
METRIC: Kd (µM)
Field: numeric (µM). Do not append units.

In: GET /values?readout=Kd&item= OO [H2O2, hydrogen peroxide]
Out: 56.9
